test: gradient 5% acetonitrile 3 min, to 50% in 2 min, to 85% in 15 min, held 3 min, 100 µL/min; settings: column: Zorbax Extend-C18 2.1 x 50 mm; eluents: water / acetonitrile, 0.1% formic acid
ENDPOINT: RP-LC retention time (s)
Respond with the bare value in s.

Solved entries:
COc1ccc(-n2nc(-c3nc(-c4ccccn4)no3)c3ccccc3c2=O)cc1 = 946
CCn1cc(S(=O)(=O)N2CCC3(CC2)CC(OCc2ccccc2)CCO3)cn1 (centres undefined) = 897
Cn1nnnc1SCC(=O)NCCCC(=O)Nc1cccc2cccnc12 = 620
O=C(Cn1nc2c(SC3CCCCC3)nccn2c1=O)Nc1ccc(Br)cc1 = 1120
CNC(=O)C1CCN(Cc2cc3ccccc3n2Cc2ccc(Cl)cc2)CC1 = 708

Please fill in: RP-LC retention time reported for CCOC(=O)c1c(C)c(C(=O)C(C)N(CC)C(=O)c2ccccc2Cl)c(C)n1CC (centres undefined) = 1050

The compound listed as Cc1ccc(CNC(=O)N2C[C@@H](F)C[C@H]2C(=O)N2CCc3ccccc3C2)cc1 has a reported RP-LC retention time of 887

Looking up CCSCCOC(=O)C1=C(C)NC2=C(C(=O)CC(C)(C)C2)C1c1ccccn1 (centres undefined) , I see its RP-LC retention time listed as 648

Recorded result, Cc1nn(-c2cc(N3CCOCC3)ncn2)c(C)c1CCC(=O)NCCc1ccco1 , RP-LC retention time: 734

Values from the METLIN SMRT retention time set (Domingo-Almenara et al. 2019)
